Listed here are variants together with their documented protein stability index.
B1: FBF1 (parent)
chain: YQRPQDSEDMWGDEDFTFGAYQPT

Variants of: B1
Assay name: protein stability index of a GFP-peptide fusion (GPS, HEK-293T) (PSI 1-6); higher = more stable;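 also: lentivirally expressed fusions sorted by FACS into six bins by GFP to DsRed ratio, PSI derived from sequencing read proportions per bin multiplied by bin number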
Experimental setup: c terminus: a fixed tail appended
Please reply with the number alone, leaving off any unit.

Example results:
>  <Var>
Y1S

>  <protein stability index>
4.52

$$$$
>  <Var>
Q2R

>  <protein stability index>
3.83

$$$$
>  <Var>
E14Y

>  <protein stability index>
2.27

$$$$
>  <Var>
E8P

>  <protein stability index>
1.65

$$$$
>  <Var>
W11G

>  <protein stability index>
4.67

$$$$

Give the measured protein stability index of T17F .
2.53

Try Q22C next.
2.6

Try E14M next.
1.26

Try E8Q next.
1.81

Try W11E next.
4.5

Try Y21S next.
3.51

Try D15A next.
2.31

Try D15Q next.
2.41

Try D6G next.
1.77

Try E14D next.
2.58

Try M10K next.
3.72

Try T17L next.
2.31

Try R3W next.
2.82

Values were extracted from the supplement of paper PMC10567573.
